FYI, the data here is from ChEMBL document CHEMBL5584280.

- Protocol Summary: Solubility of compound in buffer at pH 6.8 incubated for 4 hrs by HPLC-UV analysis
- Type: physicochemical
Value Type: solubility at 4 h (µg/mL)
Numeric answer only, unit µg/mL assumed.

Compound	solubility at 4 h, µg/mL
C[C@@H]1CN(c2cccc(Nc3nc(N[C@@H]4CCCC[C@@H]4N)c(C#N)c4cn[nH]c(=O)c34)c2)C[C@H](C)O1	6.7

# input for lookup
Look at this compound and give its reported solubility at 4 h. Cc1cccc(Nc2nc(NC3CCCCC3N)c(C#N)c3cn[nH]c(=O)c23)c1 (configuration not stated)
0.9

* * *

- Protocol Summary: Solubility of compound in FaSSIF incubated for 4 hrs by HPLC-UV analysis
- Format: ADME
Measured solubility at 4 h of individual entries
# output: bare number, implied unit µg/mL

Molecule	Unit Label	solubility at 4 h
C[C@@H]1CN(c2cccc(Nc3nc(N[C@@H]4CCCC[C@@H]4N)c(C#N)c4cn[nH]c(=O)c34)c2)C[C@H](C)O1	µg/mL	30

Moving on to the next molecule.
Returns the measured solubility at 4 h for the input molecule. Input: Cc1cccc(Nc2nc(NC3CCCCC3N)c(C#N)c3cn[nH]c(=O)c23)c1 (configuration not stated)
2.1
